Assign Plant response rating, Crabgrass to each entry below.
# Test system: crabgrass
# RUN_DESCRIPTION: Test B preemergence/postemergence greenhouse plant response rating 0 to 10
# Assay type: in vivo, Digitaria spp.
# CONDITION_INFO: Rate 200 g/ha, PREEMERGENCE; 0 to 10 scale
Reply: number alone, nothing else.

[Q] Give the reported value of Plant response rating, Crabgrass for this record: COc1cc(-c2nn3c(c2Cl)CCCC3)c(F)cc1Cl [Compound 29]
[A] 9

[Q] State its Plant response rating, Crabgrass for this compound: Fc1cc(Cl)c(OCc2ccccc2)cc1-c1nn2c(c1Cl)CCCC2 [Compound 22]
[A] 4

[Q] Write down Plant response rating, Crabgrass measured for item CC(C)Oc1cc(-c2nn3c(c2Br)CCCC3)c(F)cc1Cl [Compound 38]
[A] 8

[Q] Please report the measured Plant response rating, Crabgrass for O=C1COc2cc(F)c(-c3nn4c(c3Cl)CCCC4)cc2N1 [Compound 51]
[A] 9

[Q] Output measured Plant response rating, Crabgrass for this item: CCS(=O)(=O)Oc1cc(-c2nn3c(c2Cl)CCCC3)c(F)cc1Cl [Compound 25]
[A] 7

[Q] For the compound CC(C)OC(=O)c1cc(-c2nn3c(c2Cl)CCCC3)c(F)cc1Cl [Compound 44] , give its measured Plant response rating, Crabgrass value.
[A] 9

[Q] Name the recorded Plant response rating, Crabgrass of the item C=CCOc1cc(-c2nn3c(c2Br)CCCC3)c(F)cc1Cl [Compound 37] in your answer.
[A] 7

[Q] Note Plant response rating, Crabgrass for the compound shown: CCC(=O)Oc1cc(-c2nn3c(c2Cl)CCCC3)c(F)cc1Cl [Compound 47]
[A] 0
